Values were extracted from the supplement of paper PMC12042874.

experiment: amyloid nucleation score (Sup35N fusion, yeast selection) (log enrichment); library NNK3; higher = more nucleation; inactive = no reads after selection;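 note: zero at mode of non-aggregating sequences after 7 days selection at 30°C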
READOUT: amyloid nucleation score

As a guide, the following entries are already answered.
>>> df
    biopolymer_sequence  data_value
0  VMNHLRRTNLVPTSAVNAYN    inactive
1  NNSGLSFFSNLGWVLHGDLV    inactive
2  HFIASRGSGNLKVAFTDSQT        1.23
3  CKYSMRLDCLARNNDLKVLL    inactive
4         YISLISCMGKVNY        2.31
5  GYKATQLLSGGPYNLCVGGT    inactive
6  RGGCQATVGNALNIRFFAQG        1.72

# evaluate next
Prompt line: Please give the measured amyloid nucleation score for this sequence: VGSNSDSVCCSPVVAGFQWT
Response line: 1.07

###

test: amyloid nucleation score (Sup35N fusion, yeast selection) (log enrichment); library NNK3; higher = more nucleation; inactive = no reads after selection
READOUT: amyloid nucleation score

>>> print(df.to_string())
    biopolymer_sequence                   readout  data_value
0    LSGSLTTISIITGGVDCD  amyloid nucleation score    inactive
1  RCTELVKAISLVVVYIYDEG  amyloid nucleation score    inactive
2  FGSVERFLLDPLTGHVGRFF  amyloid nucleation score    inactive
3  LFSMEKGEYGNRRGYAVYFL  amyloid nucleation score        1.74

Prompt line: Please give the measured amyloid nucleation score for this sequence: VAIIAYQWSIPSMAGPVNRR
Response line: 0.652

Prompt line: Please give the measured amyloid nucleation score for this sequence: VKWKDVDLFGLC
Response line: inactive

Prompt line: Please give the measured amyloid nucleation score for this sequence: EIAVVRKVLYPYCRYVLICS
Response line: inactive

Prompt line: Please give the measured amyloid nucleation score for this sequence: SYGHLQILKVMAIPSYAFPK
Response line: inactive

Prompt line: Please give the measured amyloid nucleation score for this sequence: NELVLKYRSTVVLVKLW
Response line: inactive

Prompt line: Please give the measured amyloid nucleation score for this sequence: RSNLIILSAHYRLYMDLRCA
Response line: inactive

Prompt line: Please give the measured amyloid nucleation score for this sequence: SDLCRSMSNQFSELSSNDFV
Response line: inactive

Prompt line: Please give the measured amyloid nucleation score for this sequence: YVFFIVMASSCWHVHSYNYF
Response line: -0.437

Prompt line: Please give the measured amyloid nucleation score for this sequence: TRAYVVAIDQYFRGRRRNI
Response line: inactive

Prompt line: Please give the measured amyloid nucleation score for this sequence: GGLYKYKNRTRLFMSWRVSR
Response line: inactive

###

test: amyloid nucleation score (Sup35N fusion, yeast selection) (log enrichment); library NNK3; higher = more nucleation; inactive = no reads after selection
READOUT: amyloid nucleation score

    biopolymer_sequence  data_value
0           SDFAIWKDFDG        1.21
1  NWPGMLFNLSLVERRSWRRN    inactive
2   MQFLRYSLPSDNRLPGCFL    inactive
3  VNIRLMVKIRFDSVLRILPY       0.509
4  YGMYNMTGNMAFKTPARYIF    inactive
5     IFNMSEYNKLECTLTLY    inactive
6              VVGNVTGY    inactive
7              KTSVEISN    inactive

Prompt line: Please give the measured amyloid nucleation score for this sequence: AWELEKTTYRRGRAIVVHTP
Response line: inactive

Prompt line: Please give the measured amyloid nucleation score for this sequence: MGRAWTIQAGNVMCRVVGKH
Response line: -0.283

Prompt line: Please give the measured amyloid nucleation score for this sequence: LFTSFYVSPYM
Response line: inactive
